- targetUnderTest: Peroxisome proliferator-activated receptor alpha (Homo sapiens)
- Sequence (Q07869 whole entry, the tested form may be a part): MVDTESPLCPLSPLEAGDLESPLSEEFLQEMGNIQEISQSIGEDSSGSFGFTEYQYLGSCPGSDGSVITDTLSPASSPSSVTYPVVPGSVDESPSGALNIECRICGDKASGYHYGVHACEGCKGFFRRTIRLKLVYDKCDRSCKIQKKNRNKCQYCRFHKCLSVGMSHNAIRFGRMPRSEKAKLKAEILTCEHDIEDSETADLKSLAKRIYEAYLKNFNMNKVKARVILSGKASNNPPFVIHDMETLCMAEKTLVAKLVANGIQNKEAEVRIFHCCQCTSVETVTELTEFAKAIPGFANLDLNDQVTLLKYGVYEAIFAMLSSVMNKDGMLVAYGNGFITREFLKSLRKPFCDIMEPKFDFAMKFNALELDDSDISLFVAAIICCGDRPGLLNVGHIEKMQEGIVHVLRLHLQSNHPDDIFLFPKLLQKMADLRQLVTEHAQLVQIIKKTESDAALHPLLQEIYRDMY
- experimentDescription: Agonist activity at human Gal4-fused PPARalpha LBD expressed in African green monkey CV1 cells cotransfected with pRL-SV40 plasmid measured after 24 hrs by luciferase reporter gene assay
pEC50: −log10 of the molar value.
recordedMetric: pEC50

Some solved cases for reference:
| chemSmiles | pEC50 |
| --- | --- |
| CC#C[C@@H](CC(=O)O)c1ccc(OCc2ccc(CN3CCC4(C=Cc5ccccc54)CC3)cc2)cc1 | < 5.00 |
| CC#C[C@@H](CC(=O)O)c1ccc(OCc2ccc(CN3CCCc4cccc(OC)c43)s2)cc1 | < 5.00 |

// moving on: another record for pEC50
Q) What value of measured pEC50 is listed for CC#C[C@@H](CC(=O)O)c1ccc(OCc2ccc(CN3CCC4(CCc5ccccc54)CC3)s2)cc1 ?
A) < 5.00

====

- experimentDescription: Cmax in rat plasma at 10 mg/kg, po or 3 mg/kg, iv by LC/MS/MS analysis
- Type: ADME, organism-based
- Parameters: dose 10 mg/kg
recordedMetric: Cmax (ng/mL)
Lab book: enter the figure in ng/mL, no units written.

Q) What value of measured Cmax is listed for CC#C[C@@H](CC(=O)O)c1ccc(OCc2ccc(CN3CCC4(C=Cc5ccccc54)CC3)cc2)cc1 [LY2881835] ?
A) 11200

====

- experimentDescription: Solubility of the compound in 0.01 N HCl
- Type: physicochemical
solubility overview
Lab book: enter the figure in µg/mL, no units written.

| compound | recordedMetric | valueMeasured |
| --- | --- | --- |
| CC#C[C@@H](CC(=O)O)c1ccc(OCc2ccc(CN3CCC4(C=Cc5ccccc54)CC3)cc2)cc1 [LY2881835] | solubility | 13 |

Q) What value of measured solubility is listed for CC#C[C@@H](CC(=O)O)c1ccc(OCc2ccc(CN3CCCc4cccc(OC)c43)s2)cc1 ?
A) 46

Q) What value of measured solubility is listed for CC#C[C@@H](CC(=O)O)c1ccc(OCc2ccc(CN3CCC4(CCc5ccccc54)CC3)s2)cc1 ?
A) 55

====

- experimentDescription: Tmax in rat at 3 mg/kg, po or 1 mg/kg, iv by LC/MS/MS analysis
- Type: ADME, organism-based
- protocolConditions: in vivo
Tmax overview
Could you kindly put the unit after your number?

| chemSmiles | valueMeasured |
| --- | --- |
| CC#C[C@@H](CC(=O)O)c1ccc(OCc2ccc(CN3CCCc4cccc(OC)c43)s2)cc1 | 36 min |

Q) What value of measured Tmax is listed for CC#C[C@@H](CC(=O)O)c1ccc(OCc2ccc(CN3CCC4(CCc5ccccc54)CC3)s2)cc1 ?
A) 30 min

====

Cmax overview
- experimentDescription: Cmax in dog plasma at 3 mg/kg, po or 1 mg/kg, iv by LC/MS/MS analysis
- Assay type: ADME, organism-based, Canis lupus familiaris
- Design: dose 3 mg/kg
Lab book: enter the figure in ng/mL, no units written.

| chemSmiles | unitSpec | Cmax |
| --- | --- | --- |
| CC#C[C@@H](CC(=O)O)c1ccc(OCc2ccc(CN3CCC4(CCc5ccccc54)CC3)s2)cc1 | ng/mL | 1100 |

// moving on: another record for Cmax
Q) What value of measured Cmax is listed for CC#C[C@@H](CC(=O)O)c1ccc(OCc2ccc(CN3CCCc4cccc(OC)c43)s2)cc1 ?
A) 2290
